This section presents molecules with their documented Herbicidal effect index, Eo values.
System: barnyard grass (Eo)
Assay: Test Example 1: herbicidal effects by flooded paddy field treatment;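 note: 0-5 growth inhibition grade; 5 = over 90%; 4 = 70-90%; 3 = 50-70%; 2 = 30-50%; 1 = 10-30%; 0 = under 10%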
Type: in vivo
Conditions: dose 100 gai/10a, examined on 21st day after treatment, index 0-5 per Table 44
Recorded Endpoint: Herbicidal effect index, Eo

* CC(C)C(c1cncnc1C(F)(F)F)N(C)C(=O)Cc1cccc(Cl)c1 (racemic) | 5
* CC(C)C(c1cncnc1C(F)(F)F)N(C)C(=O)COc1cccc(F)c1 (racemic) | 5
* CC#Cc1ccc(CC(=O)N(C)C(c2cncnc2C(F)(F)F)C(C)C)cc1 (racemic) | 5
* CN(C(=O)Cc1ccccc1)C(c1cncnc1C(F)(F)F)C1CC1 (racemic) | 5
* Cc1ccc(CC(=O)N(C)C(c2cncnc2C(F)(F)Cl)C2CC2)cc1 (racemic) | 5
* CC(C)C(c1cncnc1C(F)(F)F)N(C)C(=O)Cc1ccccc1F (racemic) | 5
* CC(C)C(c1cncnc1C(F)(F)F)N(C)C(=O)Cc1ccc(S(C)(=O)=O)cc1 (racemic) | 5
* CC(C)C(c1cncnc1C(F)(F)Cl)N(C)C(=O)Oc1ccccc1 (racemic) | 5
